Consider the following molecules and their measured pIC50 readings.
Biological target: human recombinant PDE4B (Homo sapiens (Human), UniProt Q07343, S133E/S654A/S659A/S661A)
Sequence (Q07343 122-736 S133E/S654A/S659A/S661A): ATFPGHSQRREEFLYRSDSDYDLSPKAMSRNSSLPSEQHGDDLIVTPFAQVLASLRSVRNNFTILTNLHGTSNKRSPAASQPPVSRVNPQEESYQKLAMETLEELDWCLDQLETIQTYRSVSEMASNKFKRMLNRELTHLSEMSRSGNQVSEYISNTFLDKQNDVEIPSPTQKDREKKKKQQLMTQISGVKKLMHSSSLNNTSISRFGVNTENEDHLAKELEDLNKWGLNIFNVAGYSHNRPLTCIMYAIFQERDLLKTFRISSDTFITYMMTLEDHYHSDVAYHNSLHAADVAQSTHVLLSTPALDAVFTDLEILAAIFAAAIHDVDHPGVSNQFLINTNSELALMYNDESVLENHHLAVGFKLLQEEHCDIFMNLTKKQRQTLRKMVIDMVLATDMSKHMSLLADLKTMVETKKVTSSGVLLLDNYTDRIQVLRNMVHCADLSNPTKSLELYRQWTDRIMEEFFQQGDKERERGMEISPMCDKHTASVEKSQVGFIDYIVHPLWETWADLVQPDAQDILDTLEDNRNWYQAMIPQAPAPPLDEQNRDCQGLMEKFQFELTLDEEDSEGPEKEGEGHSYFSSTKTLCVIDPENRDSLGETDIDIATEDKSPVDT
Conditions: read-out: Human PDE4B FL
pIC50: −log10 of the molar value. Structures can show the parent of a compound that is named as a salt.

molecule	pIC50
O=C(NC1CC1)c1nc2cccnc2n1-c1ccnc(C(F)(F)F)c1 [Example 82]	5.22
O=C(c1nc2cccnc2n1-c1cc(F)c(Cl)cc1F)N1CCC1 [Example 12, trifluoroacetate salt]	7.00
Cc1ccc(-n2c(C(=O)NC3CC3)nc3cccnc32)c(Cl)c1 [Example 88]	5.43
NC(=O)c1nc2cccnc2n1-c1ccc(Cl)c(F)c1 [Example 17]	5.07
CCCNC(=O)c1nc2cccnc2n1-c1ccc(Cl)c(F)c1 [Example 6]	7.42
Cn1ccc(NC(=O)c2nc3cccnc3n2-c2ccc(Cl)cc2)n1 [Example 24]	6.68
